System: DMS-273
Assay Overview: NCI tumour cell line growth inhibition, 48 h
Activity calls are given as the source filed them. Rule as the data show it: active = GI50 up to about 1.1 µM and inactive = higher.
Overview of reported GI50 across a group of molecules:

| Molecule | GI50 |
| --- | --- |
| CCCCCCCCCCCCCCCCCCOP(=O)([O-])OCC[N+](C)(C)C | 1.74 µM (inactive) |
| CC(C)(C)C1=CC(=C2C(=O)C(=O)c3ccccc3C2=O)C=C(C(C)(C)C)C1=O | 59.8 µM (inactive) |
| CC(SC(=S)Nc1cccc(F)c1)C(=O)O (stereo not given) | 11.8 µM (inactive) |
| C[N+](C)(C)CC1CCCCC1=O (stereo not given) | 71.3 µM (inactive) |
| CN(C)CCC[N+]1=Nc2cccc3cccc(c23)N1 | 18.8 µM (inactive) |
| O=C1C/C(Br)=C\c2ccccc2-c2ccccc21 | 2.19 µM (inactive) |
| CCNC(=O)/C(=C/c1ccc(OC)cc1)c1cc(OC)c(OC)c(OC)c1 | 3.47 µM (inactive) |
| C[C@@]12[Se]c3ccccc3[C@]1(C)[Se]c1ccccc12 | 3.61 µM (inactive) |
| Cn1c2ccccc2c2cc(-c3ccccc3)c3c(c21)C(=O)C=CC3=O | 19.7 µM (inactive) |
| COc1ccc(C2[C@@H](Cl)C(=O)N2c2ccc(OC)cc2)cc1 (stereo not given in full) | 62.7 µM (inactive) |
| CN(CCc1ccccn1)c1nc(=[N+](C)C)ss1 | > 100 µM (inactive) |
| Cc1cc(NCCCCCCNc2cc(C)nc3cc(N(C)C)ccc23)c2ccc(N(C)C)cc2n1 | 3.64 µM (inactive) |
| Cc1nc2cc(N)c(F)cc2[nH]1 | > 100 µM (inactive) |
| [O-]c1c2c(nn1-c1ccccc1)c1ccccc1c[n+]2Cc1ccccc1 | > 100 µM (inactive) |
| Fc1cccc2c1cc1ccc3cccc4ccc2c1c34 | > 100 µM (inactive) |
| O=c1[nH]c2ccccc2n1C1CCN(CCCC(c2ccc(F)cc2)c2ccc(F)cc2)CC1 [PIMOZIDE] | 3.45 µM (inactive) |
| C/C=C(/C)C(=O)O[C@H]1[C@H](O)CC(c2ccc3c(c2O)C(=O)C2=C(O)C4(OC)C(=O)C(C(N)=O)=C(O)[C@H](CC(=O)c5ccccc5O)C4CC2[C@@]3(C)OC)O[C@@H]1C (stereo not given in full) | 0.01 µM (active) |
| CC/N=C(/C#N)NCC | 44.5 µM (inactive) |
| COC(=O)/C(C#N)=C1\CCC(O)N1 (stereo not given) | > 100 µM (inactive) |
| Cn1c(C2CCCc3c2c2ccccc2n3C)cc2ccccc21 (stereo not given) | 57.3 µM (inactive) |

* * *

Test system: IGROV-1
Assay Overview: NCI tumour cell line growth inhibition, 48 h
Activity calls are given as the source filed them. No stated cut-off is given here; in the data, active = GI50 up to about 1.1 µM and inactive = higher.
Outcomes: active, inactive

| Molecule | Group Label |
| --- | --- |
| c1cc(-c2ccc(Oc3ccc(-c4ccncc4)cc3)cc2)ccn1 | inactive |
| COC(=O)C1=C(OC)C(=P2(c3ccccc3)CC(c3ccccc3)=C2c2ccccc2)C(C(=O)OC)=C1C(=O)OC (stereo unspecified) | inactive |
| C=C1C(=O)O[C@@H]2[C@H](O)[C@@H](C)[C@@H]3C=CC(=O)[C@@]3(C)[C@H](OC(=O)C=C(C)C)[C@H]12 | inactive |
| C[N+]1(CCNP(=S)(NCC[N+]2(C)Cc3c(ccc4c3OCO4)C3C2c2cc4c(cc2C[C@@H]3O)OCO4)NCC[N+]2(C)Cc3c(ccc4c3OCO4)C3C2c2cc4c(cc2C[C@@H]3O)OCO4)Cc2c(ccc3c2OCO3)C2C1c1cc3c(cc1C[C@H]2O)OCO3 (stereo partly specified) | active |
| CN1C(=O)N/C(=C\c2ccc(S(=O)(=O)N/N=C\C(O)C(O)C(O)CO)cc2)C1=O (stereo unspecified) | inactive |
| CCCCCCCCCCCCCCCCCCNc1ccn(C2OC(COP(=O)(O)OCC3OC(n4cc(F)c(NCCCCCCCCCCCCCCCCCC)nc4=O)CC3O)C(O)C2O)c(=O)n1 (stereo unspecified) | inactive |

* * *

Test system: SK-OV-3
Assay Overview: NCI tumour cell line growth inhibition, 48 h
Active and inactive are the calls of the source. No stated cut-off is given here; in the data, active = GI50 up to about 1.1 µM and inactive = higher.
Outcomes: active, inactive

| Molecule | Group Label |
| --- | --- |
| O=c1[nH]c2ccccc2n1C1CCN(CCCC(c2ccc(F)cc2)c2ccc(F)cc2)CC1 [PIMOZIDE] | inactive |
| COc1cc(O)c2c(c1C)C(C)(O)c1c(C)coc1C2=O (configuration not stated) | inactive |
| NC(N)=NC(P(=O)(O)O)P(=O)(O)O | inactive |
| C#CCNC(=O)NCCCC(NC(C)=O)C(=O)NCc1ccccc1 (configuration not stated) | inactive |
| CN(C)C(=S)S [SODIUM DIMETHYLCARBAMODITHIOATE] | inactive |
| C/C(=N\NC(=S)NC1CCCC1)c1ccccn1 | active |
| Cc1nc2cc(N)c(F)cc2[nH]1 | inactive |
| O=C1NC(N2CCOCC2)=N/C1=C\c1cccs1 | inactive |
| COc1ccc(N2C(=O)C3c4[nH]c5ccc(OC)cc5c4C4CCC(C(C)(C)C)CC4C3C2=O)cc1 (configuration not stated) | inactive |
| C[N+]1(CCN=C=NC2CCCCC2)CCOCC1 | inactive |
| O=[N+]([O-])c1c(F)c(F)c2c(c1F)Nc1ccccc1S2 | inactive |
| Cc1cc(C)c2c(=O)n(CC(O)CN3CCN(CCOCCO)CC3)sc2n1 (configuration not stated) | inactive |
| CC(C)Oc1ccc2c(c1)OCC1Cc3ccccc3OC21 (configuration not stated) | inactive |
| CN(C)CCNC(=O)c1cccc2c(Nc3ccc(S(N)(=O)=O)cc3)c3ccccc3nc12 | active |
| CC(=O)C1=C(N=[N+]=[N-])c2cccc3cccc(c23)C1=O | inactive |
| O=C1C=C(N2CCN(CCOCCO)CC2)C(=O)c2c(O)ccc(O)c21 | inactive |
| COCOc1cc(OC)c(Br)cc1C/C(=N/O)C(=O)OC | inactive |
| Cc1ccc(C(=O)N/N=C(\N=N\c2ccc(C(=O)O)cc2)c2ccc(N(CCC#N)CCC#N)cc2C)cc1 | inactive |
| Cc1nc2c(-c3ccccc3)[nH]c(C)c2c(=O)o1 | inactive |
| CC(C)(C)[Si](C)(C)OCCC1CC2(S(=O)(=O)C3=CC=C=C=C3)ON1CC2S(=O)(=O)c1ccccc1 (configuration not stated) | inactive |
| Cn1c(=O)c2c(nc(NCCCCl)n2CC(=O)O)n(C)c1=O | inactive |
| O=C1Cc2c(-c3ccccc3)cc(-c3ccc4ccccc4c3)nc2-c2ccccc2N1 | inactive |

* * *

Tested on: LOX IMVI
Assay Overview: NCI tumour cell line growth inhibition, 48 h
The source made the active and inactive calls. Rule as the data show it: active = GI50 up to about 1.1 µM and inactive = higher.
Outcomes: active, inactive

| Compound | Group Label |
| --- | --- |
| CCCn1c(SC)nc(COC(=O)NC)c1COC(=O)NC | inactive |
| COC1=CC(=O)C2=C(C1=O)[C@H]1CC[C@]3(C)C(=O)CC[C@H]3[C@@H]1CC2 | inactive |
| O=c1c2ccccc2nc(Nc2cccc(Cl)c2)n1/N=C/C=C/c1ccccc1 | inactive |
| C[N+]1(CCNP(=S)(NCC[N+]2(C)Cc3c(ccc4c3OCO4)C3C2c2cc4c(cc2C[C@@H]3O)OCO4)NCC[N+]2(C)Cc3c(ccc4c3OCO4)C3C2c2cc4c(cc2C[C@@H]3O)OCO4)Cc2c(ccc3c2OCO3)C2C1c1cc3c(cc1C[C@H]2O)OCO3 (stereo partly drawn) | active |
| CC1=CC[C@@H](C(C)(C)O)C[C@@H]1O | inactive |
| COc1cc2[nH]c(=O)c3cc(C)cc4c(Cl)nc(c1OC)c2c43 | inactive |
| CC(C)CC(=O)NC(C(=O)NC(C(=O)NC(CC(C)C)C(O)CC(=O)NC(C)C(=O)NC(CC(C)C)C(O)CC(=O)O)C(C)C)C(C)C (stereo not drawn) | inactive |
| Clc1ncc(Cl)c(Cl)n1 | inactive |

* * *

Tested on: UO-31
Assay Overview: NCI tumour cell line growth inhibition, 48 h
Active and inactive are the calls of the source. No stated cut-off is given here; in the data, active = GI50 up to about 1.1 µM and inactive = higher.
Attribute Measured: GI50

| Molecule | Tested Target | Value Measured |
| --- | --- | --- |
| CC(C)C(=O)/C=C/c1ccc(Cl)cc1Cl | UO-31 | 11.4 µM (inactive) |
| OCCN(CCO)c1ccc2c(C(F)(F)F)cc(C(F)(F)F)nc2n1 | UO-31 | > 100 µM (inactive) |
| NC1CCCCC1.O=C(O)C(CP(=O)(O)O)=C(Cl)Cl | UO-31 | > 100 µM (inactive) |
| N#C/C(=C/NC(N)=S)C(N)=O | UO-31 | > 100 µM (inactive) |
| C=C(CCC(=O)N(CCc1c[nH]c2ccccc12)C(=O)c1ccccc1CSCC)C(=O)OC | UO-31 | 27.7 µM (inactive) |
| COc1ccccc1C(=O)NO | UO-31 | > 100 µM (inactive) |
| O=C(O)/C=C/c1ccc2c(c1)CC1(Cc3ccccc3C1)C2 | UO-31 | 80 µM (inactive) |
| Oc1c(C(Nc2cccc3cccnc23)c2ccccc2)ccc2cccnc12 (configuration not stated) | UO-31 | 4.11 µM (inactive) |
| Cc1cc(OC(=O)Nc2cccc3ccccc23)c(C(C)C)cc1C(=S)Nc1ccccc1 | UO-31 | 17.6 µM (inactive) |
| CC(Nc1ccc(Cl)cc1)c1ccncc1 (configuration not stated) | UO-31 | 63.1 µM (inactive) |
| CC(C)(N)CO[C@H]1C[C@H]2CC[C@@]1(C)C2(C)C | UO-31 | 16.5 µM (inactive) |
| Cc1c2c(ccc3ccccc32)c[n+]2ccccc12 | UO-31 | 20.9 µM (inactive) |
